# System: HepG2
# Assay: cytotoxicity call (relative viability < 0.9)
# Cond: 10 µM
The whole screen tested about 39,000 compounds, of which about 3,300 (8.5%) were called active. Many of the other results were omitted from the sample, so actives are more common in it than they were.
Could you please pick one outcome from this set? true for active, false for inactive

Answered examples (5):
* C[C@@H]1CN([C@H](C)CO)C(=O)c2cccc(NC(=O)C3CC3)c2O[C@H]1CN(C)S(=O)(=O)c1ccccc1 | false
* C[C@@H]1CN([C@H](C)CO)C(=O)c2cc(NS(=O)(=O)c3ccccc3)ccc2O[C@@H](C)CCCCO[C@H]1CN(C)C(=O)C1CCCCC1 | false
* C[C@H](CO)N1C[C@H](C)[C@H](CN(C)Cc2ccc(C(F)(F)F)cc2)Oc2ccc(NC(=O)Nc3ccc4c(c3)OCO4)cc2CC1=O | false
* C[C@H]1CCCCO[C@H](CN(C)C(=O)Nc2ccc(F)cc2)[C@@H](C)CN([C@@H](C)CO)C(=O)c2cc(NC(=O)C3CCCCC3)ccc2O1 | false
* C[C@@H]1CN([C@H](C)CO)C(=O)Cc2cc(NS(=O)(=O)c3cccs3)ccc2O[C@H]1CN(C)CC1CC1 | false

Inquiry: Can you look up the reported call for COc1ccc(NC(=O)Nc2ccc3c(c2)C(=O)N([C@H](C)CO)C[C@@H](C)[C@H](CN(C)CC2CCCCC2)O3)cc1 for me?
Reply text: false

Inquiry: Can you look up the reported call for COc1ccc(S(=O)(=O)Nc2ccc3c(c2)C(=O)N([C@@H](C)CO)C[C@H](C)[C@@H](CN(C)Cc2ccc4c(c2)OCO4)OCCCC[C@@H](C)O3)cc1 for me?
Reply text: false

src = the antibiotic and cytotoxicity screens of Wong et al. (2023)
